pKd: recorded values
Target: CYP102A170 (Paenibacillus sp., UniProt A0A2U8SZJ5)
Sequence (A0A2U8SZJ5 1-1057 limits assumed): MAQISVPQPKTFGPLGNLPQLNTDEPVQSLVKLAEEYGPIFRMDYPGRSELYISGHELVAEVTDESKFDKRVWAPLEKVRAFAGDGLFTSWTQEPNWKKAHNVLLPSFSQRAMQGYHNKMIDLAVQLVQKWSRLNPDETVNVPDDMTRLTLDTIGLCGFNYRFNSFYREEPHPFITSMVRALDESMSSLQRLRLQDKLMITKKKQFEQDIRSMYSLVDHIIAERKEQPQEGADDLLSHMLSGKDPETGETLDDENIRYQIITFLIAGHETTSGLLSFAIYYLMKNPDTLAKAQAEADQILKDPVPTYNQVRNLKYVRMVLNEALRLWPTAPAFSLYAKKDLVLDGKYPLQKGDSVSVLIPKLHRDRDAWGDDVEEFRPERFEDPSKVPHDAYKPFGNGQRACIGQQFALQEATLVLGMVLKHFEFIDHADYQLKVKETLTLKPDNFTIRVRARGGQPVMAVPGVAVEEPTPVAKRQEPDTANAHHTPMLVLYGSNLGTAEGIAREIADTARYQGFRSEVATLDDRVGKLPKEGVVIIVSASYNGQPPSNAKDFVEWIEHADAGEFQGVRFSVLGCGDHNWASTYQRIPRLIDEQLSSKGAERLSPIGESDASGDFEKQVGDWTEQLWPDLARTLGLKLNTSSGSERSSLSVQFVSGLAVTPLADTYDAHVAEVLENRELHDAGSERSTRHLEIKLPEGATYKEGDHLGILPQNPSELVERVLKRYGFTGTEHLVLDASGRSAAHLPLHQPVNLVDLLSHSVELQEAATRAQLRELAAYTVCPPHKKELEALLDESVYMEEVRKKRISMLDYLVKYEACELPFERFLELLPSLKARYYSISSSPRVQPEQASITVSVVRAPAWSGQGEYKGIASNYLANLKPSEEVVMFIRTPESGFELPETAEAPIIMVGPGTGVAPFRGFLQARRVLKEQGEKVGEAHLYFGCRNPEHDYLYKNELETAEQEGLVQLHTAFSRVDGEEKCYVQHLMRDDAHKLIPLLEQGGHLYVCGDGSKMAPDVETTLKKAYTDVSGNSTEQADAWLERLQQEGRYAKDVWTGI
Test: Spectral substrate binding titration (low-spin to high-spin Soret shift)
Conditions: read-out: Kd (dissociation constant); CYP102A170; single-binding model for spectral change ΔA (A390–A420); 1 μM of protein
# log scale: pKd equals minus log10 of the concentration in mol/L

# LINE_NOTATION, RESULT
data = [
    ("CCCCCCCCCCCCCCCCC(=O)O", 5.55),
]

Now examine the next entry.
Please respond with reported pKd (system CYP102A170 (Paenibacillus sp., UniProt A0A2U8SZJ5)) for `CCCCCCCCCCCC(=O)O` . 5.19

* * *

Target: CYP102A15 (Bacillus sp. (in: firmicutes))
Experiment: NADPH consumption assay and kinetic parameters
Conditions: CYP102A15
PFR (product formation rate): recorded values
# value in nmol/ nmol-P450/min; strip the unit string

# LINE_NOTATION, UNIT_ANNOTATION, PFR (product formation rate)
rows = [
    ("CCCCCCCC/C=C\\CCCCCCCC(=O)O", "nmol/ nmol-P450/min", 23.10),
    ("CCCCCCCCCCCC(=O)O", "nmol/ nmol-P450/min", 7.00),
    ("CCCCCCCCCCCCCC(=O)O", "nmol/ nmol-P450/min", 35.91),
]

Now examine the next entry.
Please respond with reported PFR (product formation rate) (system CYP102A15 (Bacillus sp. (in: firmicutes))) for `CCCCC/C=C\C/C=C\CCCCCCCC(=O)O` . 2.70

* * *

pKd: recorded values
Biological target: UniProt A0A2S1UG59
Assay: Spectral substrate binding titration (low-spin to high-spin Soret shift)
Details: read-out: Kd (dissociation constant); CYP102A15; single-binding model for spectral change ΔA (A389–A419); 1 μM of protein
# log scale: pKd equals minus log10 of the concentration in mol/L

# LINE_NOTATION, ASSAY_TARGET, PROPERTY_MEASURED, RESULT
records = [
    ("CCCCCCCCCCCCCCCCC(=O)O", "UniProt A0A2S1UG59", "pKd", 4.75),
]

Now examine the next entry.
Determine its reported pKd: `CCCCCCCCCCCC(=O)O` 5.11

* * *

Molecular target: CYP102A15 (Bacillus sp. (in: firmicutes), UniProt A0A2S1UG59)
Sequence (A0A2S1UG59 1-1047): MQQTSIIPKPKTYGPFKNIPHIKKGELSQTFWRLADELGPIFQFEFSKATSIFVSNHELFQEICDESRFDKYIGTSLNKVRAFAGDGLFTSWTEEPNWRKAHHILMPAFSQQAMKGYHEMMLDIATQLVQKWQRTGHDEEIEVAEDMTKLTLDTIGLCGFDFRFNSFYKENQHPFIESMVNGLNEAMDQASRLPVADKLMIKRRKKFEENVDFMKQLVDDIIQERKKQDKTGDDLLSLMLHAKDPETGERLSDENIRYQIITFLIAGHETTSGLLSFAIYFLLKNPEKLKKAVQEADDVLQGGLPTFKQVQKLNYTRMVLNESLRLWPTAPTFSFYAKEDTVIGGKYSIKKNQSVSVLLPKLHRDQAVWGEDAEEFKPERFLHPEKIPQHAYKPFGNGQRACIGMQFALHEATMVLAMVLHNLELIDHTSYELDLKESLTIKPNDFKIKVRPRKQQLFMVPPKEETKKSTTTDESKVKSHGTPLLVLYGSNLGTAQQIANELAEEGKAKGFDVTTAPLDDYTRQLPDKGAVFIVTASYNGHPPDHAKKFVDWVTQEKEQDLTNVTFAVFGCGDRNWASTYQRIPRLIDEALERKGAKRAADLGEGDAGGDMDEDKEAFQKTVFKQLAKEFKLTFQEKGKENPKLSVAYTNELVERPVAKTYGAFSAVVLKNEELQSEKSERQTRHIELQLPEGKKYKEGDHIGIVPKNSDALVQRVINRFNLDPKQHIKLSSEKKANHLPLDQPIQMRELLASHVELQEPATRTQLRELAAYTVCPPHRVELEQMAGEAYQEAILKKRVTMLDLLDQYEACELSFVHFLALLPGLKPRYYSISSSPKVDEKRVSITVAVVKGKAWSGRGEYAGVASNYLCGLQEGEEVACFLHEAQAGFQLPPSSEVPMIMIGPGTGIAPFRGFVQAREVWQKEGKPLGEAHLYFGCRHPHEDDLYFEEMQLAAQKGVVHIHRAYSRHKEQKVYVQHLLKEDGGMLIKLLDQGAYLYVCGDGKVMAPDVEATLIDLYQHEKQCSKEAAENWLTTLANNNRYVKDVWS
Assay: NADPH consumption assay and kinetic parameters
Details: CYP102A15
CE (coupling efficiency): recorded values
# value in %; strip the unit string

# COMPOUND, ASSAY_TARGET, UNIT_ANNOTATION, CE (coupling efficiency)
data = [
    ("CCCCCCCCCCCC(=O)O [Lauric acid]", "CYP102A15 (Bacillus sp. (in: firmicutes), UniProt A0A2S1UG59)", "%", 90),
]

Please respond with reported CE (coupling efficiency) (system CYP102A15 (Bacillus sp. (in: firmicutes), UniProt A0A2S1UG59)) for CCCCCCCC/C=C\CCCCCCCC(=O)O [Oleic acid] . 85

Please respond with reported CE (coupling efficiency) (system CYP102A15 (Bacillus sp. (in: firmicutes), UniProt A0A2S1UG59)) for CCCCC/C=C\C/C=C\CCCCCCCC(=O)O [Linoleic acid] . 68

Please respond with reported CE (coupling efficiency) (system CYP102A15 (Bacillus sp. (in: firmicutes), UniProt A0A2S1UG59)) for CCCCCCCCCCCCCC(=O)O [Myristic acid] . 80

* * *

Biological target: CYP102A15 (Bacillus sp. (in: firmicutes), UniProt A0A2S1UG59)
Experiment: Spectral substrate binding titration (low-spin to high-spin Soret shift)
PROPERTY_MEASURED: Kd (µM)
# value in µM; strip the unit string

# LINE_NOTATION, UNIT_ANNOTATION, Kd
measured = [
    ("CCCCC/C=C\\C/C=C\\C/C=C\\C/C=C\\CCCC(=O)O", "µM", 29.8),
    ("CC/C=C\\C/C=C\\C/C=C\\C/C=C\\C/C=C\\CCCC(=O)O", "µM", 18.8),
    ("CCCCCCCCCCCCCC(=O)O", "µM", 14.9),
    ("CCCCCCCCCCCCCCCC(=O)O", "µM", 11),
    ("CCCCC/C=C\\C/C=C\\CCCCCCCC(=O)O", "µM", 13.9),
]

Now examine the next entry.
Determine its reported Kd: `CCCCCCCC/C=C\CCCCCCCC(=O)O` 25.7

* * *

Molecular target: CYP102A170 (Paenibacillus sp., UniProt A0A2U8SZJ5)
Test: Spectral substrate binding titration (low-spin to high-spin Soret shift)
Kd: recorded values
# value in nM; strip the unit string

# LINE_NOTATION, ASSAY_TARGET, Kd [nM]
measured = [
    ("CCCCC/C=C\\C/C=C\\CCCCCCCC(=O)O", "CYP102A170 (Paenibacillus sp., UniProt A0A2U8SZJ5)", 1360),
    ("CCCCCCCC/C=C\\CCCCCCCC(=O)O", "CYP102A170 (Paenibacillus sp., UniProt A0A2U8SZJ5)", 2230),
    ("CC/C=C\\C/C=C\\C/C=C\\C/C=C\\C/C=C\\CCCC(=O)O", "CYP102A170 (Paenibacillus sp., UniProt A0A2U8SZJ5)", 1300),
    ("CCCCCCCCCCCCCC(=O)O", "CYP102A170 (Paenibacillus sp., UniProt A0A2U8SZJ5)", 9890),
    ("CCCCCCCCCCCCCCCCCC(=O)O", "CYP102A170 (Paenibacillus sp., UniProt A0A2U8SZJ5)", 3370),
]

Now examine the next entry.
Please respond with reported Kd (system CYP102A170 (Paenibacillus sp., UniProt A0A2U8SZJ5)) for `CCCCCCCCCCCCCCCC(=O)O` . 5010
